Assay: Pharmacokinetic evaluation in beagles after intravenous or gavage administration
Format: in vivo
Details: beagle, dog, plasma, po, gavage, 2.5 mg/kg
readout: AUC(0-t) (ng·h/mL)

1: CCn1c(=O)c2c(nc(/C=C/c3ccc(OC4CCN(C(C)=O)CC4)cc3)n2C)n(CC)c1=O [Example 6]
2: CCn1c(=O)c2c(nc(/C=C/c3ccc(OC4CCN(S(C)(=O)=O)CC4)cc3)n2C)n(CC)c1=O [Example 8]
Task: Which has the smaller recorded AUC(0-t), 1 or 2 ? Give the label of your selection.
Result: 2
(2: 22700 ng·h/mL, 1: 47200 ng·h/mL)

###

Assay: Pharmacokinetic evaluation in beagles after intravenous or gavage administration
Type: in vivo
Conditions: beagle, dog, plasma, po, gavage, 2.5 mg/kg
readout: Tmax (h)

1: CCn1c(=O)c2c(nc(/C=C/c3ccc(OC4CCN(S(C)(=O)=O)CC4)cc3)n2C)n(CC)c1=O
2: CCn1c(=O)c2c(nc(/C=C/c3ccc(OC4CCN(C(C)=O)CC4)cc3)n2C)n(CC)c1=O
Task: Endpoint returns the identifier whose Tmax is numerically larger, either 1 or 2 . Identify your pick by its label.
Result: 2
(2: 2.67 h, 1: 0.667 h)

###

Experiment: Pharmacokinetic evaluation in rats after intravenous or gavage administration
Type: in vivo, SD rats
Details: SD, rat, plasma, po, gavage, 5 mg/kg
readout: half-life (h)

a: CCn1c(=O)c2c(nc(/C=C/c3ccc(OC4CCN(S(C)(=O)=O)CC4)cc3)n2C)n(CC)c1=O [Example 8]
b: CCn1c(=O)c2c(nc(/C=C/c3ccc(OC4CCN(C(C)=O)CC4)cc3)n2C)n(CC)c1=O [Example 6]
Task: Could you check which of a and b has a smaller value for half-life? Respond using the label that marks the chosen record.
Result: a
(a: 2.8 h, b: 6.96 h)

###

Assay: Pharmacokinetic evaluation in rats after intravenous or gavage administration
Type: in vivo, SD rats
Settings: SD, rat, plasma, intravenous injection, 1 mg/kg
readout: Cmax (µg/mL)

1: CCn1c(=O)c2c(nc(/C=C/c3ccc(OC4CCN(C(C)=O)CC4)cc3)n2C)n(CC)c1=O
2: CCn1c(=O)c2c(nc(/C=C/c3ccc(OC4CCN(S(C)(=O)=O)CC4)cc3)n2C)n(CC)c1=O
Task: 1 or 2 : whose Cmax is greater? Choose, then provide that item's label.
Result: 1

###

Test: Pharmacokinetic evaluation in beagles after intravenous or gavage administration
Format: in vivo
Conditions: beagle, dog, plasma, po, gavage, 2.5 mg/kg
Protocol: The test animals are mice and/or dogs. The LC-MS/MS system for analysis includes the Agilent 1200 series vacuum degasser, a quaternary pump, an orifice plate sampler, a thermostatted column oven, and an API4000Qtrap triple quadrupole mass spectrometer with an electrospray ionization source (ESI). A waters xbridge C18 UPLC, 2.1×50 mm, […] column was used for analysis and 0.5 μL of sample was injected. […]
readout: AUC(0-inf) (ng·h/mL)

a: CCn1c(=O)c2c(nc(/C=C/c3ccc(OC4CCN(S(C)(=O)=O)CC4)cc3)n2C)n(CC)c1=O
b: CCn1c(=O)c2c(nc(/C=C/c3ccc(OC4CCN(C(C)=O)CC4)cc3)n2C)n(CC)c1=O
Task: Consider entries a and b . Which has the numerically lower AUC(0-inf)? Lab note: record the label of whichever item you select.
Result: a
(a: 31800 ng·h/mL, b: 56500 ng·h/mL)

###

Experiment: Pharmacokinetic evaluation in rats after intravenous or gavage administration
Format: in vivo, SD rats
Conditions: SD, rat, plasma, po, gavage, 5 mg/kg
Protocol: The LC-MS/MS system for analysis includes the Agilent 1200 series vacuum degasser, a quaternary pump, an orifice plate sampler, a thermostatted column oven, and an API4000Qtrap triple quadrupole mass spectrometer with an electrospray ionization source (ESI). Waters ACQUITY UPLC CSH C18, 2.1×50 mm, 1.7 μm column was used for analysis, and 0.8 μL of sample was injected. […]
readout: MRT inf (h)

A: CCn1c(=O)c2c(nc(/C=C/c3ccc(OC4CCN(S(C)(=O)=O)CC4)cc3)n2C)n(CC)c1=O
B: CCn1c(=O)c2c(nc(/C=C/c3ccc(OC4CCN(C(C)=O)CC4)cc3)n2C)n(CC)c1=O
Task: Could you tell me which of these two has the smaller MRT inf figure? First: A Second: B Indicate which entry you chose by stating its label.
Result: A
(A: 4.07 h, B: 9.22 h)

###

Assay: Pharmacokinetic evaluation in rats after intravenous or gavage administration
Format: in vivo, SD rats
Details: SD, rat, plasma, po, gavage, 5 mg/kg
readout: AUC(0-inf) (ng·h/mL)

a: CCn1c(=O)c2c(nc(/C=C/c3ccc(OC4CCN(S(C)(=O)=O)CC4)cc3)n2C)n(CC)c1=O
b: CCn1c(=O)c2c(nc(/C=C/c3ccc(OC4CCN(C(C)=O)CC4)cc3)n2C)n(CC)c1=O
Task: Given the listed records, identify the one among a and b with higher AUC(0-inf). Provide the label of your selected option as the answer.
Result: b
(b: 40400 ng·h/mL, a: 11900 ng·h/mL)

###

Experiment: Pharmacokinetic evaluation in rats after intravenous or gavage administration
Format: in vivo, SD rats
Details: SD, rat, plasma, intravenous injection, 1 mg/kg
readout: Tmax (min)

> print(dat)
                               recordsmiles  unitstext  recordedmeasurement
1  CCn1c(=O)c2c(nc(/C=C/c3ccc(OC4CCN(C(C)=O)CC4)cc3)n2C)n(CC)c1=O        min                 4.98
2  CCn1c(=O)c2c(nc(/C=C/c3ccc(OC4CCN(S(C)(=O)=O)CC4)cc3)n2C)n(CC)c1=O        min                 4.98

###

Test: Pharmacokinetic evaluation in beagles after intravenous or gavage administration
Format: in vivo
Conditions: beagle, dog, plasma, po, gavage, 2.5 mg/kg
readout: Cmax (ng/mL)

A: CCn1c(=O)c2c(nc(/C=C/c3ccc(OC4CCN(C(C)=O)CC4)cc3)n2C)n(CC)c1=O
B: CCn1c(=O)c2c(nc(/C=C/c3ccc(OC4CCN(S(C)(=O)=O)CC4)cc3)n2C)n(CC)c1=O
Task: Higher Cmax: A or B ? Mark your answer with the label of the selected entry.
Result: A
(A: 3320 ng/mL, B: 1720 ng/mL)

###

Experiment: Pharmacokinetic evaluation in beagles after intravenous or gavage administration
Type: in vivo
Settings: beagle, dog, plasma, po, gavage, 2.5 mg/kg
readout: half-life (h)

> print(dat)
                               recordsmiles    readout  recordedmeasurement
1  CCn1c(=O)c2c(nc(/C=C/c3ccc(OC4CCN(S(C)(=O)=O)CC4)cc3)n2C)n(CC)c1=O  half-life                 11.5
2  CCn1c(=O)c2c(nc(/C=C/c3ccc(OC4CCN(C(C)=O)CC4)cc3)n2C)n(CC)c1=O  half-life                 9.11

###

Assay: Pharmacokinetic evaluation in rats after intravenous or gavage administration
Type: in vivo, SD rats
Details: SD, rat, plasma, intravenous injection, 1 mg/kg
readout: AUC(0-t) (ng·h/mL)

P: CCn1c(=O)c2c(nc(/C=C/c3ccc(OC4CCN(C(C)=O)CC4)cc3)n2C)n(CC)c1=O [Example 6]
Q: CCn1c(=O)c2c(nc(/C=C/c3ccc(OC4CCN(S(C)(=O)=O)CC4)cc3)n2C)n(CC)c1=O [Example 8]
Task: Compare the recorded AUC(0-t) of P and Q ; state which is larger. Use the label to indicate which entry you chose.
Result: P
(P: 6230 ng·h/mL, Q: 1810 ng·h/mL)

###

Experiment: Pharmacokinetic evaluation in beagles after intravenous or gavage administration
Format: in vivo
Settings: beagle, dog, plasma, intravenous injection, 0.5 mg/kg
readout: clearance (mL/min/kg)

> print(dat)
                               recordsmiles  recordedmeasurement
1  CCn1c(=O)c2c(nc(/C=C/c3ccc(OC4CCN(S(C)(=O)=O)CC4)cc3)n2C)n(CC)c1=O                 1.32
2  CCn1c(=O)c2c(nc(/C=C/c3ccc(OC4CCN(C(C)=O)CC4)cc3)n2C)n(CC)c1=O                 1.36

###

Assay: Pharmacokinetic evaluation in beagles after intravenous or gavage administration
Format: in vivo
Conditions: beagle, dog, plasma, intravenous injection, 0.5 mg/kg, read-out: Vss
readout: Vd (L/kg)

P: CCn1c(=O)c2c(nc(/C=C/c3ccc(OC4CCN(C(C)=O)CC4)cc3)n2C)n(CC)c1=O
Q: CCn1c(=O)c2c(nc(/C=C/c3ccc(OC4CCN(S(C)(=O)=O)CC4)cc3)n2C)n(CC)c1=O
Task: Between P and Q , which one shows the smaller Vd number? Which one? Tell me its label.
Result: P
